Below, each entry is listed alongside its reported GI50.
Tested on: HCC 2998
Assay: NCI tumour cell line growth inhibition, 48 h
Activity calls are given as the source filed them. No stated cut-off is given here; in the data, active = GI50 up to about 1.1 µM and inactive = higher.

// worked examples, GI50 included
{"MOLECULAR STRING": "C=C(C)CCN(C(=O)OC(C)(C)C)c1cc(C(C)C)co1", "GI50": "52 µM (inactive)"}
{"MOLECULAR STRING": "Cc1cc2c(c(C(=O)NCC(=O)O)c1)Oc1c(cc(C)cc1C(=O)NCC(=O)O)S2", "GI50": "> 100 µM (inactive)"}
{"MOLECULAR STRING": "O=C(/C=C/C(Cl)(Cl)Cl)Nc1ccc(Cl)cc1", "GI50": "6.44 µM (inactive)"}

Problem: Specify GI50 for `O=C(NCCNCCNC(=O)C(F)(F)F)C(F)(F)F` and stop.
Solution: > 100 µM (inactive)

Problem: Complete the entry with GI50 for `NS(=O)(=O)c1ccc(NC(=O)CC(=O)Nc2ccc(S(N)(=O)=O)cc2)cc1`
Solution: > 100 µM (inactive)

Data origin, for the record: ChEMBL document CHEMBL1201862
